# Test system: Cryptococcus neoformans
# Assay comment: Antifungal activity against Cryptococcus neoformans ATCC 36556 by broth microdilution method
# Assay type: functional
Measured parameter: MIC (µg/mL)

These recorded examples may help you get a feel for the data.
COc1ccc2c(Cc3ccc(OC(F)(F)F)cc3)c3[n+](cc2c1OC)CCc1cc2c(cc1-3)OCO2.[Cl-]; 16
COc1ccc2c(Cc3ccc(C(C)(C)C)cc3)c3[n+](cc2c1OC)CCc1cc2c(cc1-3)OCO2.[Cl-]; 4
COc1cc(Cc2c3[n+](cc4c(OC)c(OC)ccc24)CCc2cc4c(cc2-3)OCO4)cc(OC)c1OC.[Cl-]; 32
COc1ccc2c(Cc3cc(F)c(F)c(F)c3)c3[n+](cc2c1O)CCc1cc2c(cc1-3)OCO2.[Cl-]; 64
COc1ccc2c(Cc3ccc(C(C)C)cc3)c3[n+](cc2c1O)CCc1cc2c(cc1-3)OCO2.[Cl-]; 4

(P) COc1ccc2c(Cc3cc(F)cc(F)c3)c3[n+](cc2c1OC)CCc1cc2c(cc1-3)OCO2.[Cl-]
(Q) COc1ccc2c(Cc3ccc(C(C)(C)C)cc3)c3[n+](cc2c1O)CCc1cc2c(cc1-3)OCO2.[Cl-]
(R) COc1ccc2c(Cc3ccc(C(F)(F)F)cc3)c3[n+](cc2c1O)CCc1cc2c(cc1-3)OCO2.[Cl-]
Problem: Hello, I need these entries ordered by MIC, highest reading first. Thanks! Write the labels in rank order as requested.
Solution: P, R, Q
(P: 32 µg/mL, R: 16 µg/mL, Q: 8 µg/mL)

----------
# Tested on: Cryptococcus neoformans
# Assay comment: Antifungal activity against Cryptococcus neoformans ATCC 36556 by broth microdilution method
# Format: functional
Measured parameter: MIC (µg/mL)

COc1ccc2c(Cc3cc(F)cc(F)c3)c3[n+](cc2c1O)CCc1cc2c(cc1-3)OCO2.[Cl-]; 32

(A) COc1cc(Cc2c3[n+](cc4c(O)c(OC)ccc24)CCc2cc4c(cc2-3)OCO4)cc(OC)c1OC.[Cl-]
(B) COc1ccc2c(Cc3ccc(OC(F)(F)F)cc3)c3[n+](cc2c1O)CCc1cc2c(cc1-3)OCO2.[Cl-]
Problem: Task for the reader: decide whether A or B has the larger MIC. Which one? Tell me its label.
Solution: A
